Hi there, I'd appreciate the recorded Potency for every entry that follows.
Assay: Cell Viability - SK-N-SH (AID 435);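 also: potency is read from the fitted curve at half-maximal effect; compound exposure lasted 40 h at 37 °C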
Conditions: SK-N-SH neuroblastoma cell viability qHTS
Records with an inconclusive call do not appear. Calls of active or inactive are those of the source. Calls follow the shape of the full dose curve.

The molecule listed as `ClCBr` shows Potency equal to > 92 µM (inactive)

Record summary for `ClC(Cl)(Cl)c1ccccc1` : reported Potency = > 92 µM (inactive)

The molecule identified as `CNC(=O)O/N=C/C(C)(C)SC` registered its Potency at > 92 µM (inactive)

Reported Potency for `O=[N+]([O-])c1cccc2ccccc12` was > 92 µM (inactive)

Note to self: Potency recorded for `CCNc1nc(Cl)nc(NC(C)C)n1` was > 92 µM (inactive)

Sure, the documented Potency for `CCCSC(=O)Cl` is > 92 µM (inactive)

Documented Potency of `CCOP(=S)(OCC)SCSC(C)(C)C` : > 92 µM (inactive)

Kindly note the recorded Potency for `C/C=C/c1ccc2c(c1)OCO2` , which is > 92 µM (inactive)

The reported Potency of the molecule `CCSC(=O)Cl` was > 92 µM (inactive)

Note to self: Potency recorded for `O=C=NC1CCCCC1` was > 92 µM (inactive)

Potency measured on O=S1OCC2C(CO1)C1(Cl)C(Cl)=C(Cl)C2(Cl)C1(Cl)Cl (stereo not given) = > 92 µM (inactive)

What the record says about `c1ccc2c(c1)CCCC2` : Potency is > 92 µM (inactive)

Looking up `Clc1cc(Cl)c(-c2cc(Cl)c(Cl)cc2Cl)cc1Cl` , I found its Potency recorded as > 92 µM (inactive)

Looking up `CC(=O)[O-].CC(=O)[O-].O.O.O.[Pb+2]` , I found its Potency recorded as > 92 µM (inactive)

Just so you know, measured Potency for `CCc1cccc(CC)c1N(COC)C(=O)CCl` came out at > 92 µM (inactive)

Looking up `Cc1ccc2ccccc2c1` , I see its Potency listed as > 92 µM (inactive)

Per the records, this molecule ( `O=NN(CCO)CCO` ) has Potency equal to > 92 µM (inactive)

Value of Potency reported for the molecule `Cc1ccccc1N` is > 92 µM (inactive)

Potency measured on `Nc1ccc(Br)cc1` = > 92 µM (inactive)

Recorded Potency (molecule C1CCC2CCCCC2C1 (stereo not given) ): > 92 µM (inactive)

Kindly note the recorded Potency for `Cc1cccc(C#N)c1` , which is > 92 µM (inactive)

Value of Potency reported for the molecule `Nc1ccccc1Cl` is > 92 µM (inactive)

Given item `COC1=CC(=O)O[C@@H](/C=C/c2ccc3c(c2)OCO3)C1` , the value recorded as its Potency is > 92 µM (inactive)

Measured Potency, `COc1ccc(N)cc1` : > 92 µM (inactive)

// `CCN(CC)c1ccccc1` : Potency value = > 92 µM (inactive)

Potency reported for this molecule `CCCOC(=O)c1ccccc1C(=O)OCCC` : > 92 µM (inactive)

Field Potency (entry `c1nc[nH]n1` ) reads > 92 µM (inactive)

Lab note: `c1ccc(OP(Oc2ccccc2)Oc2ccccc2)cc1` gave Potency of > 92 µM (inactive)

The molecule listed as COC1=CC(=O)OC(CCc2ccccc2)C1 (stereo not given) has a reported Potency of > 92 µM (inactive)

The molecule `C=CCOC(=O)c1ccccc1N` showed Potency equal to > 92 µM (inactive)

Lab note: measured Potency of `Cc1ccc([N+](=O)[O-])cc1C` was > 92 µM (inactive)

Given item `O=C(Cl)/C=C/C(=O)Cl` , the value recorded as its Potency is > 92 µM (inactive)

Entry `CCCCOCCOP(=O)(OCCOCCCC)OCCOCCCC` , Potency reported as > 92 µM (inactive)

Summary for this molecule, `C=CC(C)=O` : Potency is > 92 µM (inactive)

get_value(item= `COc1ccc(C=O)cc1OC` , readout=Potency) returns > 92 µM (inactive)

Lab book: Potency of `Brc1ccccc1` noted as > 92 µM (inactive)

Looking up `CC(C)(C)OO` , I found its Potency recorded as > 92 µM (inactive)

Potency in this record for `Brc1ccc(Oc2cc(Br)c(Br)cc2Br)c(Br)c1` : > 92 µM (inactive)

Recorded Potency (molecule `C[N+](C)(C)Cc1ccccc1` ): > 92 µM (inactive)

Lab note: measured Potency of `C=CCOC(C)=O` was > 92 µM (inactive)

====

Experiment: J3T Cancer Cell Toxicity qHTS against the NCATS CANVASS Library (AID 1347371)
Settings: J3T dog glioma viability, ATP luminescence, 72 h; series mostly up to 46.1 µM
Inconclusive results are not listed. Activity calls are given as the source filed them. Calls come from the whole dose curve; as a rule, active = well fitted cell-killing curve with a large enough effect; inconclusive = small, poorly fitted or top-dose-only effect; inactive = flat fitted curve, though single readings scatter. Starred links: 1 amine or outer side, 2 acyl side, 3 side chain; linkers in the order of their positions; H or OH if unused. Positions of bridges follow the written chain, without caps; N, C: chain ends. Non-standard residues stand in square brackets, D forms with d. Residues, ends and D or L forms follow the SMILES beside them. ξ: configuration not given here. *: point of attachment. X3 = C[C@@H](Oc1ccc([C@H](N[*:1])C(=O)[*:2])cc1)[C@]1(/C=C\C(=O)[*:3])CO1; d(aIle) = CC[C@H](C)[C@@H](N)C(=O)O; X2 = CC(C)[C@@H](O)C(C)C(=O)*; ξNMeF = CNC(Cc1ccccc1)C(=O)O; ξT = CC(O)C(N)C(=O)O; ξS = NC(CO)C(=O)O
Give one outcome, nothing more. List: T = active, F = inactive

INPUT: Given `C/C(=C\[C@H](C)C(=O)C[C@H](O)CC1CC(=O)NC(=O)C1)[C@@H]1OC(=O)/C=C/CC/C=C/C=C/[C@@H]1C` , state the outcome it received in this test.
OUTPUT: T

INPUT: Short answer needed: outcome of this test for `CO[C@@]12c3c(C)cc(O)c4c(=O)occ(c34)C(=O)[C@@H]1[C@]13COC(=O)c4c(O)cc(C)c(c41)C(=O)[C@H]2[C@@H]3OC(C)=O` ?
OUTPUT: F

INPUT: I'd appreciate the recorded outcome for `C=C[C@H]1CN2CCc3c([nH]c4cccc(OC)c34)[C@@H]2C[C@@H]1/C(=C\OC)C(=O)OC` from this test.
OUTPUT: F

INPUT: Called result for C[C@]12CCC3[C@@H](CC[C@@H]4C[C@@H](O)CC[C@]34CO)[C@@]1(O)CC[C@@H]2C1=CC(=O)OC1 (some centres undefined)
OUTPUT: T

INPUT: Fill in: this test's call for `CC[C@H]1CN2CCc3c([nH]c4cccc(OC)c34)[C@@H]2C[C@@H]1/C(=C\OC)C(=O)OC` is ___
OUTPUT: F

INPUT: Recorded test outcome, item `c1ccc2nc3c(cc2c1)[nH]c1ccccc13`
OUTPUT: F

INPUT: Look up the recorded call for C1=C2CCCN[C@H]2C2CC1[C@H]1CCCCN1C2 (some centres undefined) in this test.
OUTPUT: F

INPUT: For this compound, state the assay outcome: `CCC(=O)N[C@@H](C[C@H](C)C(Cl)(Cl)Cl)C(=O)N1C(=O)C=C(OC)[C@@H]1C[C@H](C)C(Cl)Cl`
OUTPUT: F

INPUT: I'd appreciate the recorded outcome for `C/C=C1/CN2CC[C@]34C(=C(C(=O)OC)[C@H]1C[C@H]23)Nc1ccccc14` from this test.
OUTPUT: F

INPUT: How was CCCCC1CC[C@H]2CCCC(CCC)N12 (some centres undefined) classified in this test?
OUTPUT: F

INPUT: Given CC[C@H](C)[C@H]1NC(=O)[C@@H](NC(=O)C(C)[C@H](O)C(C)C)[C@@H](C)OC(=O)C2COC(=O)CNC(=O)/C=C\[C@]3(CO3)[C@@H](C)Oc3ccc(cc3)[C@H](NC1=O)C(=O)N(C)C(Cc1ccccc1)C(=O)NC(C(C)O)C(=O)N2 (some centres undefined) (X2-T[d(aIle)][X3][ξNMeF][ξT][ξS]; ester 1-C; linker 3-6 via G) , state the outcome it received in this test.
OUTPUT: F

INPUT: Please let me know the test result on file for `C=CC(C)(C)[C@@]12C[C@H]3C(=O)N/C(=C/c4cnc[nH]4)C(=O)N3[C@@H]1Nc1ccccc12` .
OUTPUT: F

INPUT: How did this test come out for `O[C@H]1C=C[C@@]23CCN(Cc4cc5c(cc42)OCO5)[C@@H]3C1` ?
OUTPUT: F

INPUT: Write down the call the test reported for this compound. Item: COC1C(O)C(C)OC(OC2C(Oc3cccc4c(O)c5c(=O)oc6ccc(C)c7c(=O)oc(c34)c5c67)OC(C)C(O)C2O)C1O (centres undefined)
OUTPUT: T

====

Test system: P93_24
Assay: qHTS profiling for inhibitors of Plasmodium falciparum proliferation (AID 504749); also: nearly all actives have a fitted effect of over 60% in size; also: potency is read from the fitted curve at half-maximal effect
Settings: P. falciparum in erythrocytes, SYBR Green DNA, 72 h; series mostly up to 28.7 µM
Results filed as inconclusive are left out. The source made the active and inactive calls. Calls follow the shape of the dose curve; as a rule, active = well fitted inhibition curve with a large enough effect; inconclusive = small, poorly fitted or top-dose-only effect; inactive = flat fitted curve, though single readings scatter.
ATTRIBUTE MEASURED: Potency

Example entries and their recorded answers appear below.
MOLECULE: O=C1C=C2C=CC3C[C@@]2(O1)C1CCCCN31 (stereo not given in full)
Potency: 12.6 µM (active)
--
MOLECULE: CCCC[N+]1(C)C2CC(OC(=O)C(CO)c3ccccc3)CC1C1OC12 (stereo not given)
Potency: inactive
--
MOLECULE: C[C@@H]1O[C@H](O[C@@H]2C=C3CC[C@H]4[C@@H](CC[C@]5(C)[C@@H](c6ccc(=O)oc6)CC[C@]45O)[C@@]3(C)CC2)[C@@H](O)[C@H](O)[C@@H]1O
Potency: inactive
--
MOLECULE: CC(C)(O)C1C2OC(=O)C1[C@]1(O)C[C@H]3O[C@]34C(=O)O[C@H]2[C@]14C (stereo not given in full) (tested in a mixture with another compound)
Potency: inactive

Just so you know, measured Potency for `C[C@H](NC(C)(C)C)C(=O)c1cccc(Cl)c1` came out at inactive

Kindly note the recorded Potency for `C[C@H](N)[C@@H](O)c1ccccc1` , which is inactive

Value of Potency reported for the molecule `COc1cc(N)c(Cl)cc1C(=O)N[C@@H]1CN2CCC1CC2` is inactive
